study system: T1, CD123 Protein, His Tag, Acro Biosciences Cat. No. ILA-H52H6 (Homo sapiens (Human), UniProt P26951 19-305)
T1 construct: Bought protein; not shown: His tag
T1 sequence: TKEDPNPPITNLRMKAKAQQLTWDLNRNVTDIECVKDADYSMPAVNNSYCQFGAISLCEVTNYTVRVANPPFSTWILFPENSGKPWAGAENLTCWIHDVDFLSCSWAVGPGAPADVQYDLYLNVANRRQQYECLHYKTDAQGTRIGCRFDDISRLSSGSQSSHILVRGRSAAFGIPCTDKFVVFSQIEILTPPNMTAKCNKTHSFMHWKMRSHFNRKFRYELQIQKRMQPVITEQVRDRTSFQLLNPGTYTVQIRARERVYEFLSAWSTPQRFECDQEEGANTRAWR
experiment description: BLI, IgG on anti-human Fc sensor, 50 nM CD123, pH 7.4 and pH 5.4
parameter: binding result

{"binder": "MYT2797 (antibody, V domains shown, IgG) VH: QVQLVQSGAEVKKPGASVKVSCKASGYIFTSSIMHWVRQAPGQGLEWIGYIKPYNDGTKYNEKFKGRATLTSDRSTSTAYMELSSLRSEDTAVYYCAREGGNDYYDTMDYWGQGTLVTVSS VL: DIQMTQSPSSLSASVGDRVTITCRASQDINSYLSWFQQKPGKAPKTLIYRVNRLVDGVPSRFSGSGSGNDYTLTISSLQPEDFATYYCLQYDAFHYTFGQGTKVEIK", "parameter": "binding result", "val": "binds"}
{"binder": "MYT1439 (antibody, V domains shown, IgG) VH: QVQLVQSGAEVKKPGASVKMSCKASGYTFTDYYMKWVKQAPGQGLEWIGDIIPSNGATFYNQKFHGKATLTVDRSISTAYMHLNRLRSDDTAVYYCTRSHLLRASWFAYWGQGTLVTVSS VL: DFVMTQSPDSLAVSLGERATINCKSSQSLLNSGNQKNYLTWYLQKPGQPPKLLIYWASTRESGVPDRFSGSGSGTDFTLTISSLQAEDVAVYYCQNDYSYPYTFGQGTKLEIK", "parameter": "binding result", "val": "binds"}
{"binder": "MYT1283 (antibody, V domains shown, IgG) VH: QVQLVQSGAEVKKPGASVKVSCKASGYIFTSSIMHWVRQAPGQGLEWIGYIKPYNDGTKYNEKFKGRATLTSDRSTSTAYMELSSLRSEDTAVYYCAREGHNDYYDTMDYWGQGTLVTVSS VL: DIQMTQSPSSLSASVGDRVTITCRASQDINSYLSWFQQKPGKAPKTLIYRVNRLVDGVPSRFSGSGSGNDYTLTISSLQPEDFATYYCLQYDAFPYTFGQGTKVEIK", "parameter": "binding result", "val": "binds"}
{"binder": "MYT2779 (antibody, V domains shown, IgG) VH: QVQLVQSGAEVKKPGASVKVSCKASGYIFTSSIMHWVRQAPGQGLEWIGYIKPYNDGTKYNEKFKGRATLTSDRSTSTAYMELSSLRSEDTAVYYCAREGGNDYYDTMDYWGQGTLVTVSS VL: DIQMTQSPSSLSASVGDRVTITCRASQDIHSYLSWFQQKPGKAPKTLIYRVNRLVDGVPSRFSGSGSGNDYTLTISSLQPEDFATYYCLQYDAFPYTFGQGTKVEIK", "parameter": "binding result", "val": "binds"}
{"binder": "MYT1266 (antibody, V domains shown, IgG) VH: QVQLVQSGAEVKKPGASVKVSCKASGYIFTSSIMHWVRQAPGQGLEWIGYIKPHNDGTKYNEKFKGRATLTSDRSTSTAYMELSSLRSEDTAVYYCAREGGNDYYDTMDYWGQGTLVTVSS VL: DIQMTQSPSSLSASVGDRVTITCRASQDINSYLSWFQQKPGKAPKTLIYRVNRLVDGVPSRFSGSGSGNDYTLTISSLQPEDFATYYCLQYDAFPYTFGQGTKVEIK", "parameter": "binding result", "val": "binds"}
{"binder": "MYT1261 (antibody, V domains shown, IgG) VH: QVQLVQSGAEVKKPGASVKVSCKASGYIFTSSIMAWVRQAPGQGLEWIGYIKPYNDGTKYNEKFKGRATLTSDRSTSTAYMELSSLRSEDTAVYYCAREGGNDYYDTMDYWGQGTLVTVSS VL: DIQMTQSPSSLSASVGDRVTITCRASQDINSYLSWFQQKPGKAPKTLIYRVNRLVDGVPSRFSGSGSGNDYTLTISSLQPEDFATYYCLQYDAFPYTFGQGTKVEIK", "parameter": "binding result", "val": "binds"}
{"binder": "MYT1452 (antibody, V domains shown, IgG) VH: QVQLVQSGAEVKKPGASVKMSCKASGYTFTDYYMKWVKQAPGQGLEWIGDIIPSNGATFYNQKFKGKATLTVDRSISTAYMHLNRLRSDDTAVYYCTRSHLLRASWFHYWGQGTLVTVSS VL: DFVMTQSPDSLAVSLGERATINCKSSQSLLNSGNQKNYLTWYLQKPGQPPKLLIYWASTRESGVPDRFSGSGSGTDFTLTISSLQAEDVAVYYCQNDYSYPYTFGQGTKLEIK", "parameter": "binding result", "val": "binds"}
{"binder": "MYT1431 (antibody, V domains shown, IgG) VH: QVQLVQSGAEVKKPGASVKMSCKASGYTFTDYYMKWVKQAPGQGLEWIGDIIPSNGHTFYNQKFKGKATLTVDRSISTAYMHLNRLRSDDTAVYYCTRSHLLRASWFAYWGQGTLVTVSS VL: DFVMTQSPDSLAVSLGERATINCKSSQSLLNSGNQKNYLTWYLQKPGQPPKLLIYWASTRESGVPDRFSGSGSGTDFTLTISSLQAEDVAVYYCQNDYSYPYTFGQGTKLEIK", "parameter": "binding result", "val": "binds"}
{"binder": "MYT2782 (antibody, V domains shown, IgG) VH: QVQLVQSGAEVKKPGASVKVSCKASGYIFTSSIMHWVRQAPGQGLEWIGYIKPYNDGTKYNEKFKGRATLTSDRSTSTAYMELSSLRSEDTAVYYCAREGGNDYYDTMDYWGQGTLVTVSS VL: DIQMTQSPSSLSASVGDRVTITCRASQDINSYHSWFQQKPGKAPKTLIYRVNRLVDGVPSRFSGSGSGNDYTLTISSLQPEDFATYYCLQYDAFPYTFGQGTKVEIK", "parameter": "binding result", "val": "binds"}

Turning now to a further binder:
## Input Fill blank: measured binding result of the binder MYT2794 (antibody, V domains shown, IgG) VH: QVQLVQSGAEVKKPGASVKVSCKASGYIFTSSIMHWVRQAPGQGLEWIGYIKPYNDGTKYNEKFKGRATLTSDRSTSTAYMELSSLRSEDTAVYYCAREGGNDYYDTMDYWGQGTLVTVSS VL: DIQMTQSPSSLSASVGDRVTITCRASQDINSYLSWFQQKPGKAPKTLIYRVNRLVDGVPSRFSGSGSGNDYTLTISSLQPEDFATYYCLQYHAFPYTFGQGTKVEIK is ____.
## Output binds
